- Assay text: Cellular Toxicity (caspase-3) H-4-II-E (AID 663);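 for caspase-3 activation: cells exposed to compound for 16 hr before readout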
- Condition set: H-4-II-E rat hepatoma; caspase-3 activation; series mostly up to 92.2 µM
- From the text: NIH Chemical Genomics Center [NCGC] NIH Molecular Libraries Screening Centers Network [MLSCN] National Institutes of Environmental Health Sciences [NIEHS] National Toxicology Program [NTP] We have developed a 1536-well cell-based assay for quantitative high throughput screening (qHTS) against a number of cell lines to determine in vitro caspase 3/7 of small molecules. This particular assay uses the H-4-II-E cell line which is derived from rat hepatoma. […] 8. Detection; Luminescence; Viewlux plate reader […]
Results filed as inconclusive are left out. Calls of active or inactive are those of the source. Calls come from the whole dose curve; as a rule, active = well fitted activation curve with a large enough effect; inconclusive = small, poorly fitted or top-dose-only effect; inactive = flat fitted curve, though single readings scatter.
The categories you may choose from are active, inactive

Compound	Label
CCCCC(CC)COC(=O)c1ccc(N(C)C)cc1 (stereo not drawn)	inactive
COc1cc([C@H]2Oc3cc([C@H]4Oc5cc(O)cc(O)c5C(=O)[C@@H]4O)ccc3O[C@@H]2CO)ccc1O	active
CCOc1ccc(NC(C)=O)cc1	inactive
Oc1c(Cl)cc(Cl)c(Cl)c1Cc1c(O)c(Cl)cc(Cl)c1Cl	inactive
COc1ccc(C(=O)c2ccccc2)c(O)c1	inactive

INPUT: Could you check what this test reported for `OC[C@H]1O[C@@H]2O[C@H]3[C@H](O)[C@@H](O)[C@@H](O[C@H]4[C@H](O)[C@@H](O)[C@@H](O[C@H]5[C@H](O)[C@@H](O)[C@@H](O[C@H]6[C@H](O)[C@@H](O)[C@@H](O[C@H]7[C@H](O)[C@@H](O)[C@@H](O[C@H]8[C@H](O)[C@@H](O)[C@@H](O[C@H]1[C@H](O)[C@H]2O)O[C@@H]8CO)O[C@@H]7CO)O[C@@H]6CO)O[C@@H]5CO)O[C@@H]4CO)O[C@@H]3CO` ?
OUTPUT: inactive

INPUT: Hi, do you know how `C/C=C/c1ccc(O)c(OC)c1` came out in this test?
OUTPUT: inactive

INPUT: Status in this test for `COc1ccc(C(Cl)=C(c2ccc(OC)cc2)c2ccc(OC)cc2)cc1` ?
OUTPUT: inactive

###

- System: DIV30
- Assay text: qHTS profiling for inhibitors of Plasmodium falciparum proliferation (AID 504749); note: nearly all actives have a fitted effect of over 60% in size
- Condition set: P. falciparum in erythrocytes, SYBR Green DNA, 72 h; series mostly up to 28.7 µM
Inconclusive results are not listed. Activity calls are given as the source filed them. Calls follow the shape of the dose curve; as a rule, active = well fitted inhibition curve with a large enough effect; inconclusive = small, poorly fitted or top-dose-only effect; inactive = flat fitted curve, though single readings scatter.
Returns: one label drawn from T for active, F for inactive

// known answers, use as guide
Molecule	Label
CCCN(CCc1cccs1)[C@H]1CCc2c(O)cccc2C1	T
Cc1c(-c2ccccc2)oc2c(C(=O)OCCN3CCCCC3)cccc2c1=O	F
CCN1/C(=C/C=C/c2sc3ccccc3[n+]2CC)Sc2ccccc21	T
O[C@@H](c1cc(C(F)(F)F)nc2c(C(F)(F)F)cccc12)[C@H]1CCCCN1	T
CCCCNC(=O)NS(=O)(=O)c1ccc(N)cc1	F

Now for a further molecule.
INPUT: Name the outcome recorded for CC(C)NCC(O)c1ccc2ccccc2c1 (stereo unspecified) in the assay.
OUTPUT: T

###

- Tgt: Nuclear receptor ROR-gamma (Homo sapiens) (UniProt P51449)
- Sequence (P51449 whole entry, looked up): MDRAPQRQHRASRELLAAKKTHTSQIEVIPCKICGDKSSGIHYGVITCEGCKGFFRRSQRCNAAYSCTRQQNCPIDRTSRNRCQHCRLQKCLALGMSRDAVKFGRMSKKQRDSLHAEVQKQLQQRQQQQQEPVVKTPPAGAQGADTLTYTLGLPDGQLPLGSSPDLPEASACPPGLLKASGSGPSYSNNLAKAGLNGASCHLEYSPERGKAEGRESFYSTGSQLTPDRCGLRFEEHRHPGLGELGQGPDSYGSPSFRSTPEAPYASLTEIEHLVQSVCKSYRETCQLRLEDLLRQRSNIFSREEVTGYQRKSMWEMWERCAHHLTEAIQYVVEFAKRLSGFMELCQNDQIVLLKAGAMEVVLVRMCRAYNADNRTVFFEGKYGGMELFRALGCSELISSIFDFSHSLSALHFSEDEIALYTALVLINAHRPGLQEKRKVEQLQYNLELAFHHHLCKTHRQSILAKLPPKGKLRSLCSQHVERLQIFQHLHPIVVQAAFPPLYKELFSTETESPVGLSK
- Assay text: qHTS assay for small molecule antagonists of the retinoid-related orphan receptor gamma (ROR-gamma) signaling pathway (AID 651802); note: nearly all actives have a fitted effect of over 60% in size
- Condition set: ROR-gamma antagonist cell reporter assay; series mostly up to 92.2 µM
Records with an inconclusive call do not appear. Active and inactive are the calls of the source. Calls follow the shape of the dose curve; as a rule, active = well fitted inhibition curve with a large enough effect; inconclusive = small, poorly fitted or top-dose-only effect; inactive = no such curve, though single readings can be large or run the other way.
Thanks in advance; please answer with one of these: y for active, n for inactive

Look over these answered cases.
Query smiles	Label
CCCN(CCC)S(=O)(=O)c1ccc(C(=O)O)cc1	n
CCOc1ccccc1C(N)=O	n
Oc1c(Cl)cc(Cl)c(Cl)c1Cc1c(O)c(Cl)cc(Cl)c1Cl	y

INPUT: // outcome(item) with item = `COc1ccc(C(Cl)=C(c2ccc(OC)cc2)c2ccc(OC)cc2)cc1`
OUTPUT: y

INPUT: What did the test return for `COc1ccc(C(=O)c2ccccc2)c(O)c1` ?
OUTPUT: n

INPUT: Returns: the outcome recorded for `O=C(O)c1ccc(S(=O)(=O)N(Cl)Cl)cc1` in this assay.
OUTPUT: n

INPUT: // param item: `CCOc1ccc(NC(C)=O)cc1` ; yields the recorded call
OUTPUT: n
